Entries and their ED50 values follow.
# Assayed target: MAO-A (Mus musculus, UniProt Q64133)
# Construct: MAO activities in the mouse brain after; from tissue
# Sequence (Q64133 whole entry): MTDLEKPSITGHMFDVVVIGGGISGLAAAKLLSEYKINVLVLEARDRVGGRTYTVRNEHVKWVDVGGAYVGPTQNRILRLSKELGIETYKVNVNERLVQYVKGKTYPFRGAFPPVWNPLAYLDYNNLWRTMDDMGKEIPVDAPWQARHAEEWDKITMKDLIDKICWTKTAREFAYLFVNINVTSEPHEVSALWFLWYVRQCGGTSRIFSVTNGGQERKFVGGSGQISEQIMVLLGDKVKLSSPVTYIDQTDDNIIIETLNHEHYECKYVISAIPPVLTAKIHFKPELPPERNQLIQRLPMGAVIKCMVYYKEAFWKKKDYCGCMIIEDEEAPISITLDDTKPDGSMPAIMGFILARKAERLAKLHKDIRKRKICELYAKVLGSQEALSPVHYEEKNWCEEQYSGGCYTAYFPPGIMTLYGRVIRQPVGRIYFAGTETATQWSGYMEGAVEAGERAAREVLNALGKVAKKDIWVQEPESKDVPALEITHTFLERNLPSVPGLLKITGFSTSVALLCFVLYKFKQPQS
# Procedure details: in vivo
# Test parameters: ip, 2 hours after administration, 5-HT 5 × 10^-4 M, estimated from dose response curves, read-out: 5-HT ID50
Quantity kind: ED50 (mg/kg)

C#CCN(C)C(C)CCCC.Cl (stereo not shown) = 40
C#CCN(C)C(C)CCCCCCCC.Cl (stereo not shown) = 35
C#CCN(C)CCCC.Cl = 100
C#CCN(C)CCCCCCC.Cl = 100

###

# Assayed target: MAO-B (Mus musculus, UniProt Q8BW75)
# Construct: MAO activities in the mouse brain after; from tissue
# Sequence (Q8BW75 1-520): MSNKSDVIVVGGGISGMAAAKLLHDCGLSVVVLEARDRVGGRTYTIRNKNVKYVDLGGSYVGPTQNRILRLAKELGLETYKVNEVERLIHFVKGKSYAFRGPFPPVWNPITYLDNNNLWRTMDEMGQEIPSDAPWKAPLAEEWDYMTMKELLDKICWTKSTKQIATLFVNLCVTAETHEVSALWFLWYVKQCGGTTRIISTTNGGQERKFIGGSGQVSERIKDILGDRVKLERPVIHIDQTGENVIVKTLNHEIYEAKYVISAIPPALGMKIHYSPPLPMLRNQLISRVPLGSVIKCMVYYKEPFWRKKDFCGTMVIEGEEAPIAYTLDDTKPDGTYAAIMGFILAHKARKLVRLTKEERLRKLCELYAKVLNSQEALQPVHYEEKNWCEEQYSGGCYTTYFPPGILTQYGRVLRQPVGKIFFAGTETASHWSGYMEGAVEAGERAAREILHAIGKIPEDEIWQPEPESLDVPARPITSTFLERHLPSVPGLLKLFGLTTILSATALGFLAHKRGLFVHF
# Procedure details: in vivo
# Format: in vivo
# Test parameters: ID50 i.p. in mice versus IC50 in vitro
Quantity kind: MAO-B ID50 (mg/Kg) / IC50 (1 × 10^-6 M)

C#CCN(C)CCCC.Cl [Example 1-BuMP] = 2 (mg/Kg)/(1 × 10^-6 M)
C#CCN(C)C(C)CCCC.Cl (centres unmarked) [Example 2-HxMP] = 2 (mg/Kg)/(1 × 10^-6 M)
C#CCN(C)C(C)CCCCCCCC.Cl (centres unmarked) [Example 2-DMP] = 25 (mg/Kg)/(1 × 10^-6 M)
C#CCN(C)C(CC)CC.O=C(O)C(=O)O [Example M-3-PP] = 10 (mg/Kg)/(1 × 10^-6 M)
C#CCN(C)CCCCCCC.Cl [Example 1-HMP] = 7.5 (mg/Kg)/(1 × 10^-6 M)

###

# Assayed target: MAO-A (Rattus norvegicus, UniProt P21396)
# Procedure details: biochemical
# Assay type: biochemical
# Test parameters: substrate 5-HT (5 × 10^-4 M); rat liver MAO, in vitro; average of at least 3 independent experiments
Where a name gives a salt, the structure may show the parent alone.
Quantity kind: 5-HT IC50

C#CCNC(C)CC.Cl (stereo not shown) = inactive
C#CCN(C)CCCC(=O)O = inactive
C#CCN(C)CCCCCCO.Cl = inactive
C#CCNC [MP, N-Methylpropargylamine-HCl] = inactive
C#CCN(CC)CCCC.O=C(O)C(=O)O = inactive
C#CCN(C)CCCCCC(=O)OCC.O=C(O)C(=O)O = inactive
C#CCN(C)C(C)CCCC(=O)OCC.Cl (stereo not shown) = inactive
C#CCCN(C)C(C)CC.O=C(O)C(=O)O (stereo not shown) = inactive
C#CCN(CC)C(C)CC (stereo not shown) = inactive

###

# Assayed target: MAO-A (Mus musculus, UniProt Q64133)
# Construct: MAO activities in the mouse brain after; from tissue
# Assay type: in vivo
# Test parameters: mouse, in vivo, po, 10 mg/kg
Quantity kind: Relative activity 5-HT

C#CCN(C)CCCCC.O=C(O)C(=O)O [Example M-1-PP] = 97
C#CCN(C)C(C)CCCCC.Cl (stereo not shown) [Example 2-HMP] = 99
C#CCN(C)C(C)CCC.Cl.O=C(O)C(=O)O (stereo not shown) [Example M-2-PP] = 89
C#CCN(C)C(C)CCCCCCCCCC.Cl (stereo not shown) [Example 2-DdMP, N-(2-dodecyl)-N-methylpropargylamine-HCl] = 107

###

# Assayed target: MAO-B (Mus musculus, UniProt Q8BW75)
# Construct: MAO activities in the mouse brain after; from tissue
# Procedure details: in vivo
# Format: in vivo
# Test parameters: ratio of ID50 values, i.p.; 120 min
# Method: Albino Swiss mice were used in this study. The animals were injected intraperitoneally with different doses of the aliphatic propargylamines in 100 μL saline. 0.5, 1, 2, 5, 10, 20, 50, 100 mg/Kg. Striata were dissected from the brai two hours after i.p. administration of the drugs. MAOA and MAOB activitie were determined immediately. The values were estimated from doseresponse
Quantity kind: Ratio MAO-A/MAO-B

C#CCN(C)C(C)CCCC.Cl (stereo not shown) = 200
C#CCN(C)CCCCCCC.Cl = 7
C#CCN(C)CCCC.Cl = 50
C#CCN(C)C(C)CCCCCCCC.Cl (stereo not shown) = 7

###

# Assayed target: MAO-B (Mus musculus)
# Construct: MAO activities in the mouse brain after; from tissue
# Procedure details: in vivo
# Type: in vivo
# Test parameters: mouse, ip, 2 hours after administration; […]; estimated from dose response curves; read-out: PE ID50
Field 'label' (enum: Y / N). Set to Y when ED50 is strictly under 2 mg/kg; else N.

C#CCN(C)CCCCCCC.Cl [Example 1-HMP] = N
C#CCN(C)C(C)CCCCCCCC.Cl (centres unmarked) [Example 2-DMP] = N
C#CCN(C)C(C)CCCC.Cl (centres unmarked) [Example 2-HxMP] = Y
C#CCN(C)C(CC)CC.O=C(O)C(=O)O [Example M-3-PP] = Y

###

# Assayed target: MAO-B (Mus musculus)
# Construct: MAO activities in the mouse brain after; from tissue
# Procedure details: in vivo
# Assay type: in vivo
# Test parameters: mouse, ip, 2 h, read-out: PE ID50
Quantity kind: ED50

C#CCN(C)CCCCC.O=C(O)C(=O)O = 2 mg/kg
C#CCN(C)C(C)CCCCCCCCCC.Cl (stereo not shown) [Example 2-DdMP, N-(2-dodecyl)-N-methylpropargylamine-HCl] = 4 mg/kg
C#CCN(C)C(C)CCC.Cl.O=C(O)C(=O)O (stereo not shown) = 0.5 mg/kg
C#CCN(C)C(C)CCCCC.Cl (stereo not shown) = 0.5 mg/kg

###

# Assayed target: MAO-A (Mus musculus, UniProt Q64133)
# Construct: MAO activities in the mouse brain after; from tissue
# Procedure details: in vivo
# Test parameters: ip, 2 h, read-out: 5-HT ID50
Quantity kind: ED50 (mg/kg)

C#CCN(C)CCCCC.O=C(O)C(=O)O = 100
C#CCN(C)C(C)CCCCCCCCCC.Cl (stereo not drawn) [Example 2-DdMP, N-(2-dodecyl)-N-methylpropargylamine-HCl] = 60
C#CCN(C)[C@H](C)Cc1ccccc1 = 25
C#CCN(C)C(C)CCC.Cl.O=C(O)C(=O)O (stereo not drawn) = 25
C#CCN(C)C(C)CCCCC.Cl (stereo not drawn) = 25
C#CCN(C)C(CC)CC.O=C(O)C(=O)O = 12

###

# Assayed target: MAO-B (Rattus norvegicus)
# Sequence (P19643 whole entry): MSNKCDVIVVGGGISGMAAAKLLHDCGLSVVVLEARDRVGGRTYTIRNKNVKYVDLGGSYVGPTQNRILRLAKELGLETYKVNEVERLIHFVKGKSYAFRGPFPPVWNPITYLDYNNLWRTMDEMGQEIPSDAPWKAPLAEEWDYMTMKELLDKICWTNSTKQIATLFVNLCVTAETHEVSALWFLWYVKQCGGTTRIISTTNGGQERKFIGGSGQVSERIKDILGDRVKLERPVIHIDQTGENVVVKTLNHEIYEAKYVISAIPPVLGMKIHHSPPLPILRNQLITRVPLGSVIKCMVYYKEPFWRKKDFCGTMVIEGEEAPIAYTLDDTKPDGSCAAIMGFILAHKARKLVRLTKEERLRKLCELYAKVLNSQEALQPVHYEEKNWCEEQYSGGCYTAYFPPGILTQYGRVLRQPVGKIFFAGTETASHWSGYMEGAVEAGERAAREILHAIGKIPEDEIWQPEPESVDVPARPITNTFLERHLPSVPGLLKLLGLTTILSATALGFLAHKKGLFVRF
# Procedure details: biochemical
# Format: biochemical
# Test parameters: ratio of IC50 values, in vitro
Quantity kind: Ratio MAO-A/MAO-B

C#CCN(C)C(C)CCCCCCCC.Cl (centres unmarked) [Example 2-DMP] = 50
C#CCN(C)C(C)CCCC.Cl (centres unmarked) [Example 2-HxMP] = 1000
C#CCN(C)CCCC.Cl [Example 1-BuMP] = 100
C#CCN(C)CCCCCCC.Cl [Example 1-HMP] = 20

###

# Ratio MAO-A/MAO-B per record follows
# Assayed target: MAO-B (Rattus norvegicus)
# Procedure details: biochemical
# Assay type: biochemical
# Test parameters: rat, liver mitochondrial membranes
Quantity kind: Ratio MAO-A/MAO-B

C#CCN(C)CCCCC.O=C(O)C(=O)O = 200
C#CCN(C)C(C)CCCCCCCCCC.Cl (centres unmarked) [Example 2-DdMP, N-(2-dodecyl)-N-methylpropargylamine-HCl] = 50
C#CCN(C)C(C)CCC.Cl.O=C(O)C(=O)O (centres unmarked) = 50
C#CCN(C)C(CC)CC.O=C(O)C(=O)O = 10
C#CCN(C)C(C)CCCCC.Cl (centres unmarked) = 100

###

pIC50 for assorted molecules
# Assayed target: MAO-A (Rattus norvegicus)
# Sequence (P21396 1-526): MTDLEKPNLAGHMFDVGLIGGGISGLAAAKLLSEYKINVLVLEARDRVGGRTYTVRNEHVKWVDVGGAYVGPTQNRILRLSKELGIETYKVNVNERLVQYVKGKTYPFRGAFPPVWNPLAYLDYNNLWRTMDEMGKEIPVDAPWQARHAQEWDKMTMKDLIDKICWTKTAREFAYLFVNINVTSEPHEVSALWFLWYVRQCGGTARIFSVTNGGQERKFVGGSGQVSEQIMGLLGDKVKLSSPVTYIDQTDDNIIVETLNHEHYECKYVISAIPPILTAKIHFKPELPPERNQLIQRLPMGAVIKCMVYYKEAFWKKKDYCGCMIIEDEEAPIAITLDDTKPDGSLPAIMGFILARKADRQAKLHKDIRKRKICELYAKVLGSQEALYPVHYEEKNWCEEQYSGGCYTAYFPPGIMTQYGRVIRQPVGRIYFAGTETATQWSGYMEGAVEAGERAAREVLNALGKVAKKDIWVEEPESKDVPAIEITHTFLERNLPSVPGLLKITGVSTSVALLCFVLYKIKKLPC
# Procedure details: biochemical
# Type: biochemical
# Test parameters: substrate 5-HT (5 × 10^-4 M); rat liver MAO, in vitro; average of at least 3 independent experiments
pIC50: −log10 of the molar value.
Quantity kind: pIC50

C#CCN(C)CCCCC.O=C(O)C(=O)O [Example M-1-PP, oxalate] = 4.00
C#CCN(C)C(CC)CC.O=C(O)C(=O)O [Example M-3-PP, oxalate] = 5.70
C#CCN(C)C(C)CCC.Cl.O=C(O)C(=O)O (stereo not drawn) [Example M-2-PP, oxalate] = 5.00
C#CCN(C)CCCCCCC.Cl [Example 1-HMP, hydrochloride] = 4.40
C#CCN(C)CCCC.Cl [Example 1-BuMP, hydrochloride] = 4.00
C#CCN(C)C(C)CCCCC.Cl (stereo not drawn) [Example 2-HMP, hydrochloride] = 4.70
C#CCN(C)C(C)CCCC.Cl (stereo not drawn) [Example 2-HxMP, hydrochloride] = 4.00
C#CCN(C)C(C)CCCCCCCC.Cl (stereo not drawn) [Example 2-DMP, hydrochloride] = 5.40
